assay: Solubility in water at RT; assay type: physicochemical; conditions: thermodynamic from solid, read-out: Solubility
metric: solubility (µg/mL)
Give a bare numeral; the unit µg/mL is implied.

**Query** Quick check: solubility of COC(=O)C1=C(C)N(c2cccc(C(F)(F)F)c2)c2n[nH]c(=O)n2[C@@H]1c1ccc(C#N)cc1CC[N+](C)(C)C [Hemi-pamoate] ?
**Result** 170

Sourced from patent US20250051340A1
